Test system: biotinyl-Trp-oxazolone
Assay: self-aminoacylation, catalytic enhancement (BWO) (fold over background); higher = more active; k-Seq, kA / k0A0; sequences stand for … in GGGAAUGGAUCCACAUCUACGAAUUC…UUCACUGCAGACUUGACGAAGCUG
This sample holds only a part of the variants without activity.
Experimental readout: self-aminoacylation
Give the value as a plain number.

Polymer sequence	self-aminoacylation
AUCACCCUGGUCAUCCAGUGA [Fam2.1 aminoacylation ribozyme variant]	6.77
AUUGCCCUGUUCAUCGAGUGA [Fam2.1 aminoacylation ribozyme variant]	7.43
AAGUUUGCUGAUAGUCGCAAA [Fam3.1 aminoacylation ribozyme variant]	1.19
AAGUUUACUAAUAGUCGCAAG [Fam3.1 aminoacylation ribozyme variant]	1.5

Here is another sequence to look at.
Give the measured self-aminoacylation of CUACUUCAAACCAUCGGUCCG [Fam1A.1 aminoacylation ribozyme variant] . 0.99

---

Test system: biotinyl-Met-oxazolone
Assay: self-aminoacylation, catalytic enhancement (BMO) (fold over background); higher = more active; k-Seq, kA / k0A0; sequences stand for … in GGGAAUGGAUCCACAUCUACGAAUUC…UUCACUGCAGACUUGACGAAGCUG
Variants at the floor of the assay were thinned out.
Assign yes to entries whose self-aminoacylation meets or exceeds 2; assign no to the rest.

Consider the following illustrative entries.
Polymer sequence	Label
AUUACCCUGGUUAACGAGUGA [Fam2.1 aminoacylation ribozyme variant]	yes
AUUACCCUGGUCAUUGCGUGA [Fam2.1 aminoacylation ribozyme variant]	yes
AAGUUUGCUAAUAGUUGCAAU [Fam3.1 aminoacylation ribozyme variant]	no
AAGCUUGCUAAUAGUCACAAG [Fam3.1 aminoacylation ribozyme variant]	no

Would you say CAACACUUCAAGCAAUCGGUU [Fam1B.1 aminoacylation ribozyme variant] shows self-aminoacylation at minimum 2? no

Would you say AAGUUUGCUAAUAGACACAAG [Fam3.1 aminoacylation ribozyme variant] shows self-aminoacylation at minimum 2? no

Would you say CGACUUCAAACAAUGGGUCUG [Fam1A.1 aminoacylation ribozyme variant] shows self-aminoacylation at minimum 2? no

Would you say AUUACCCUUGACAUCGAGUGA [Fam2.1 aminoacylation ribozyme variant] shows self-aminoacylation at minimum 2? yes

---

Tested on: biotinyl-Met-oxazolone
Assay: self-aminoacylation, catalytic enhancement (BMO) (fold over background); higher = more active; k-Seq, kA / k0A0; sequences stand for … in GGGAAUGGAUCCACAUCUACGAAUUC…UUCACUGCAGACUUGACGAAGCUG
Fewer inactive variants are shown than the library holds.
Assign yes to entries whose self-aminoacylation meets or exceeds 4; assign no to the rest.

Polymer sequence	Label
CUACUUCAAAGAAUCGGACUG [Fam1A.1 aminoacylation ribozyme variant]	no
AUUCACCUAGCUCUUCGGGUG [Fam2.2 aminoacylation ribozyme variant]	no
AUUCACCUAGGCUAUCGGGUG [Fam2.2 aminoacylation ribozyme variant]	no
AUUCAGGUAGGUCAUCGGGUG [Fam2.2 aminoacylation ribozyme variant]	yes
CUACUUCAAACAGUCGUUCUG [Fam1A.1 aminoacylation ribozyme variant]	no
AUUACCCUUGUCACCGAGUGA [Fam2.1 aminoacylation ribozyme variant]	yes
AAGUUUGCUAAUCGUUGCAAG [Fam3.1 aminoacylation ribozyme variant]	no
CCAGACUUCAAGCAAUCCGUC [Fam1B.1 aminoacylation ribozyme variant]	no
CUACUUCAAAGAACCGGUCUG [Fam1A.1 aminoacylation ribozyme variant]	no
CUACUUCAACCAAUAGGUCUG [Fam1A.1 aminoacylation ribozyme variant]	no

Could you now consider this next sequence?
Would you say CUGCUUCAAACAAUCGGUCUG [Fam1A.1 aminoacylation ribozyme variant] shows self-aminoacylation at minimum 4? no

---

System: biotinyl-Val-oxazolone
Assay: self-aminoacylation, catalytic enhancement (BVO) (fold over background); higher = more active; k-Seq, kA / k0A0; sequences stand for … in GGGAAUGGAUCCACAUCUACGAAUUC…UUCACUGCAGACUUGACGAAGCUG
This sample holds only a part of the variants without activity.
Assign Y to entries whose self-aminoacylation meets or exceeds 0.9; assign N to the rest.

Polymer sequence	Label
AUACACCUAGGUCAUCGGGGG [Fam2.2 aminoacylation ribozyme variant]	Y

Could you now consider this next sequence?
Would you say AGGUUUGCUAAUAGACGCAAG [Fam3.1 aminoacylation ribozyme variant] shows self-aminoacylation at minimum 0.9? N

---

Tested on: biotinyl-Leu-oxazolone
Assay: self-aminoacylation, catalytic enhancement (BLO) (fold over background); higher = more active; k-Seq, kA / k0A0; sequences stand for … in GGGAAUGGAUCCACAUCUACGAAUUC…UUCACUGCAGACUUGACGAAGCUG
Variants at the floor of the assay were thinned out.
Experimental readout: self-aminoacylation
Give the value as a plain number.

Before answering, review these 3 worked examples.
Polymer sequence	Experimental readout	Experimental result
CCACACUUCACGUAAUCGGUC [Fam1B.1 aminoacylation ribozyme variant]	self-aminoacylation	0.733
AUUCACCUAGGUCCUGGGGUG [Fam2.2 aminoacylation ribozyme variant]	self-aminoacylation	9.12
ACACACUUCAAGCAACCGGUC [Fam1B.1 aminoacylation ribozyme variant]	self-aminoacylation	1.17

Give the measured self-aminoacylation of AAGUAUGCUAGUAGUCGCAAG [Fam3.1 aminoacylation ribozyme variant] . 0.756

---

Tested on: biotinyl-Val-oxazolone
Assay: self-aminoacylation, catalytic enhancement (BVO) (fold over background); higher = more active; k-Seq, kA / k0A0; sequences stand for … in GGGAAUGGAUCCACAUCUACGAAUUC…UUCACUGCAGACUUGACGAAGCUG
Fewer inactive variants are shown than the library holds.
List of self-aminoacylation values.
Give the value as a plain number.

Before answering, review these 10 worked examples.
Polymer sequence	Experimental result
AUUACCCUGGUCAUCGAAUGU [Fam2.1 aminoacylation ribozyme variant]	0.788
CCACCCCUCAAGCAAUCGGUC [Fam1B.1 aminoacylation ribozyme variant]	1.27
CCACACUUCGAGCAAUCGGUA [Fam1B.1 aminoacylation ribozyme variant]	1.06
UGGUUUGCUAAUAGUCGCAAG [Fam3.1 aminoacylation ribozyme variant]	1.51
CUACUUCAAACAAUAGGUCUC [Fam1A.1 aminoacylation ribozyme variant]	0.657
CCACACUUGAAGCAAUCGGUA [Fam1B.1 aminoacylation ribozyme variant]	1.25
ACUACCCUGGACAUCGAGUGA [Fam2.1 aminoacylation ribozyme variant]	2.92
CUUCACUUCAAGCAAUCGGUC [Fam1B.1 aminoacylation ribozyme variant]	1.15
CCACACUUCAAACAAUCCGUC [Fam1B.1 aminoacylation ribozyme variant]	0.993
UUAACCCUGGUCAUCGAGUGA [Fam2.1 aminoacylation ribozyme variant]	5.9

Give the measured self-aminoacylation of CCAGACUUCAAGCAAUCGGUC [Fam1B.1 aminoacylation ribozyme variant] . 1.54

Give the measured self-aminoacylation of UUACUUCAAACAAUGGGUCUG [Fam1A.1 aminoacylation ribozyme variant] . 1.05

Give the measured self-aminoacylation of AAUUUUGCUAAUAGUAGCAAG [Fam3.1 aminoacylation ribozyme variant] . 1.37

Give the measured self-aminoacylation of CUACUACAAACAAUCGUUCUG [Fam1A.1 aminoacylation ribozyme variant] . 0.649

Give the measured self-aminoacylation of AUACACCUACGUCAUCGGGUG [Fam2.2 aminoacylation ribozyme variant] . 2.49

Give the measured self-aminoacylation of AAGCCUGCUAAUAGUCGCAAG [Fam3.1 aminoacylation ribozyme variant] . 1.77

Give the measured self-aminoacylation of UUUCACCUAGGGCAUCGGGUG [Fam2.2 aminoacylation ribozyme variant] . 3.9

Give the measured self-aminoacylation of CCACACUUCCAGCAACCGGUC [Fam1B.1 aminoacylation ribozyme variant] . 1.34

---

List of self-aminoacylation values.
Test system: biotinyl-Phe-oxazolone
Assay: self-aminoacylation, catalytic enhancement (BFO) (fold over background); higher = more active; k-Seq, kA / k0A0; sequences stand for … in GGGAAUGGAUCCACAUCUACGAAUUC…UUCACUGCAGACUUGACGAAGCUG
Variants at the floor of the assay were thinned out.
Give the value as a plain number.

Before answering, review these 10 worked examples.
Polymer sequence	self-aminoacylation
UAGUUGGCUAAUAGUCGCAAG [Fam3.1 aminoacylation ribozyme variant]	2.38
AAGUAUGCUAAUAGUCGCAAG [Fam3.1 aminoacylation ribozyme variant]	22.9
AUUACCCUGGACAUCGAGUGC [Fam2.1 aminoacylation ribozyme variant]	1.19
ACACACUUCAAGCGAUCGGUC [Fam1B.1 aminoacylation ribozyme variant]	2.18
CCACAAUUCAACCAAUCGGUC [Fam1B.1 aminoacylation ribozyme variant]	6.75
AGUACCCAGGUCAUCGAGUGA [Fam2.1 aminoacylation ribozyme variant]	16.6
AUUCAACUAGGUCAUCGUGUG [Fam2.2 aminoacylation ribozyme variant]	5.52
AUUCUUCUAGGUCAUCGGGUG [Fam2.2 aminoacylation ribozyme variant]	50.3
AUUCACGUAGGUCUUCGGGUG [Fam2.2 aminoacylation ribozyme variant]	40.1
CCACACUUCAAUCAGUCGGUC [Fam1B.1 aminoacylation ribozyme variant]	0.869

Give the measured self-aminoacylation of UUUCACCUAGGUUAUCGGGUG [Fam2.2 aminoacylation ribozyme variant] . 19.6

Give the measured self-aminoacylation of GUGACCCUGGUCAUCGAGUGA [Fam2.1 aminoacylation ribozyme variant] . 144

Give the measured self-aminoacylation of AUUACCCUGGUCGUCGAAUGA [Fam2.1 aminoacylation ribozyme variant] . 3.37

Give the measured self-aminoacylation of AUUACCCUGUGCAUCGAGUGA [Fam2.1 aminoacylation ribozyme variant] . 16.8

Give the measured self-aminoacylation of AUUACGCUGGACAUCGAGUGA [Fam2.1 aminoacylation ribozyme variant] . 16.1

Give the measured self-aminoacylation of AGUACCCUGGUCCUCGAGUGA [Fam2.1 aminoacylation ribozyme variant] . 18.1

Give the measured self-aminoacylation of CCACACUGCAAGCGAUCGGUC [Fam1B.1 aminoacylation ribozyme variant] . 1.13

Give the measured self-aminoacylation of AUUACACUGGUCAUCGACUGA [Fam2.1 aminoacylation ribozyme variant] . 1.11
